Record form. Attribute: pIC50. Fill in for each entry.
- target: VIM-1 (Pseudomonas aeruginosa (strain ATCC 15692 / DSM 22644 / CIP 104116 / JCM 14847 / LMG 12228 / 1C / PRS 101 / PAO1))
- test: biochemical
- conditionSet: fluorescence assay, CCF2-FA substrate, 30 pM enzyme, 2 hours at 25° C.; read-out: VIM-1 IC50
For clarity, pIC50 is expressed as the negative log10 of concentration in mol/L.

(Q) Consider the compound NCCNC(=O)c1cccc(-c2ccc(S(=O)(=O)NCCN)c(S(N)(=O)=O)c2-c2nn[nH]n2)c1N and give its measured pIC50.
(A) 9.65

(Q) Consider the compound Nc1ccc2cccc(-c3ccc(S(N)(=O)=O)c(S(N)(=O)=O)c3-c3nn[nH]n3)c2n1 and give its measured pIC50.
(A) 9.34

(Q) Consider the compound NCCNS(=O)(=O)c1ccc(-c2cccc3[nH]c(CCN)nc23)c(-c2nn[nH]n2)c1S(N)(=O)=O and give its measured pIC50.
(A) 9.70

(Q) Consider the compound Nc1ccc2cccc(-c3ccc(S(=O)(=O)N[C@H]4CNC[C@H]4N)c(S(N)(=O)=O)c3-c3nn[nH]n3)c2n1 and give its measured pIC50.
(A) 9.89

----------
- target: VIM-1 (Pseudomonas aeruginosa (strain ATCC 15692 / DSM 22644 / CIP 104116 / JCM 14847 / LMG 12228 / 1C / PRS 101 / PAO1), UniProt A0A0F7KYQ8)
- test: biochemical
- conditionSet: VIM-1 IC50, fluorescence assay, CCF2-FA substrate, 30 pM enzyme, 2 hours at 25° C.
measuredAttribute: pIC50
For clarity, pIC50 is expressed as the negative log10 of concentration in mol/L.

(Q) Consider the molecule Nc1ccc(-c2ccc(S(=O)(=O)NC[C@@H]3CNCCN3)c(S(N)(=O)=O)c2-c2nn[nH]n2)cn1 and give its measured pIC50.
(A) 9.55

(Q) Consider the molecule Nc1nc2c(-c3ccc(S(=O)(=O)NC4CN5CCC4CC5)c(S(N)(=O)=O)c3-c3nnn[nH]3)cccc2s1.O=C(O)C(F)(F)F (stereo not drawn) [Example 97, 2,2,2-trifluoroacetate] and give its measured pIC50.
(A) 9.65

(Q) Consider the molecule C[C@H](CN)NS(=O)(=O)c1ccc(-c2cccc3[nH]c(N)nc23)c(-c2nn[nH]n2)c1S(N)(=O)=O and give its measured pIC50.
(A) 10.01

----------
Record form. Attribute: pIC50. Fill in for each entry.
- target: IMP-1 (Serratia marcescens, UniProt P52699)
- Sequence (P52699 whole entry, looked up, species assumed): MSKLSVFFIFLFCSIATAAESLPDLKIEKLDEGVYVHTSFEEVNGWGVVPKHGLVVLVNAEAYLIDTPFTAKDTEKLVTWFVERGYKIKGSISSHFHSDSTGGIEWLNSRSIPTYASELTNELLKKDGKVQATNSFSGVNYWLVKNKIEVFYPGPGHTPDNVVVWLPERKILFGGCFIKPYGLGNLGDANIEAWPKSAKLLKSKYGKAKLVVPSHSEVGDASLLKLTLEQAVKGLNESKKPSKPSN
- test: biochemical
- Type: biochemical
- conditionSet: fluorescence assay, CCF2-FA substrate, 2 pM enzyme, 2 hours at 25° C.; read-out: IMP-1 IC50
For clarity, pIC50 is expressed as the negative log10 of concentration in mol/L.

(Q) Consider the molecule NCCNS(=O)(=O)c1ccc(-c2ccc3ncn(CCN)c3c2)c(-c2nn[nH]n2)c1S(N)(=O)=O [Example 348] and give its measured pIC50.
(A) 8.48

(Q) Consider the molecule Nc1nc2c(-c3ccc(S(=O)(=O)NCCN4CCNC(=O)C4)c(S(N)(=O)=O)c3-c3nnn[nH]3)cccc2s1 [Example 15] and give its measured pIC50.
(A) 9.35

(Q) Consider the molecule NCCNC(=O)c1cccc(-c2ccc(S(=O)(=O)NCCN)c(S(N)(=O)=O)c2-c2nn[nH]n2)c1 [Example 334] and give its measured pIC50.
(A) 8.34

(Q) Consider the molecule NCc1nc2cc(-c3ccc(S(=O)(=O)NC[C@H](O)CN)c(S(N)(=O)=O)c3-c3nn[nH]n3)ccc2[nH]1 [Example 464] and give its measured pIC50.
(A) 8.74

(Q) Consider the molecule Nc1ncc(-c2ccc(S(=O)(=O)N[C@@H]3CCNC3)c(S(N)(=O)=O)c2-c2nn[nH]n2)s1 [Example 284] and give its measured pIC50.
(A) 9.39

(Q) Consider the molecule Cn1c(N)nc2c(-c3ccc(S(=O)(=O)N4CCNCC4)c(S(N)(=O)=O)c3-c3nn[nH]n3)cccc21 [Example 158] and give its measured pIC50.
(A) 8.77

(Q) Consider the molecule NC[C@@H](CO)NS(=O)(=O)c1ccc(-c2cccc3sc(N)nc23)c(-c2nnn[nH]2)c1S(N)(=O)=O [Example 201] and give its measured pIC50.
(A) 9.96

(Q) Consider the molecule Nc1nc2c(-c3ccc(S(=O)(=O)NC[C@H](N)CO)c(S(N)(=O)=O)c3-c3nn[nH]n3)cccc2[nH]1 [Example 191] and give its measured pIC50.
(A) 9.36

(Q) Consider the molecule NC[C@H](CO)NS(=O)(=O)c1ccc(-c2ccc(N)nc2)c(-c2nn[nH]n2)c1S(N)(=O)=O [Example 408] and give its measured pIC50.
(A) 9.16

(Q) Consider the molecule NC(=O)c1nc2c(-c3ccc(S(=O)(=O)N[C@H]4CCNC4)c(S(N)(=O)=O)c3-c3nn[nH]n3)cccc2[nH]1 [Example 292] and give its measured pIC50.
(A) 9.17

(Q) Consider the molecule NC[C@H](N)CNS(=O)(=O)c1ccc(-c2cnc3cc[nH]c3c2)c(-c2nn[nH]n2)c1S(N)(=O)=O [Example 373] and give its measured pIC50.
(A) 9.31

(Q) Consider the molecule Nc1nc2c(-c3ccc(S(=O)(=O)NC[C@@H](N)CO)c(S(N)(=O)=O)c3-c3nn[nH]n3)cccc2[nH]1 [Example 190] and give its measured pIC50.
(A) 9.21

(Q) Consider the molecule Nc1nc2c(-c3ccc(S(=O)(=O)N[C@@H]4CCCNC4)c(S(N)(=O)=O)c3-c3nnn[nH]3)cccc2s1 [Example 69] and give its measured pIC50.
(A) 9.73

(Q) Consider the molecule NCCNS(=O)(=O)c1ccc(-c2cccc3[nH]nnc23)c(-c2nn[nH]n2)c1S(N)(=O)=O [Example 236] and give its measured pIC50.
(A) 9.26
